meta.source: patent US20070049591A1

- study target: human phospho-Mek1 / non-phosphorylated Mek1 (Homo sapiens)
- Construct: GST (N); His6 (C); purchased Upstate 14-429 (phospho-Mek1) or 14-420 (non-phosphorylated Mek1)
- assay protocol: In vitro Mek1 Kinase Assay
- Format: biochemical
- condition notes: recombinant GST/His6-tagged Mek1, 2 μM ATP, 2 hours at 30° C., PKLight luminescence readout
measured endpoint: IC50

Some compounds with known IC50 results, for comparison:
INSERT INTO measurements (compound, measured_endpoint, result) VALUES
  ('c1nc2nc[nH]c(NC3CCCCCC3)c-2n1 [Example 17, N-cycloheptyl-9H-purin-6-amine]', 'IC50', '> 10 µM'),
  ('N#Cc1ccc(-c2cnc3ccc(NCCCO)nn23)cc1 [Example 18]', 'IC50', '≤ 10 µM'),
  ('Cc1c([N+](=O)[O-])c2ccc(O)cc2n1-c1ccccc1 [Example 2, 2-methyl-3-nitro-1-phenyl-1H-indol-6-ol]', 'IC50', '≤ 10 µM'),
  ('COc1cncc(-c2cnc3ccc(NC4CCOCC4)nn23)c1 [Example 14]', 'IC50', '> 10 µM'),
  ('c1nc(NC2CCCC2)c2nc[nH]c2n1 [Example 16, N-cyclopentyl-9H-purin-6-amine]', 'IC50', '> 10 µM');

From here, focus on the item given below.
Record N#Cc1ccc(-c2cnc3ccc(NCCc4ccccn4)nn23)cc1 [Example 19] . Reported IC50: ≤ 10 µM

====

- study target: human phospho-Mek1 / non-phosphorylated Mek1 (Homo sapiens)
- Construct: GST (N); His6 (C)
- assay protocol: In vitro Mek1 Kinase Assay
- condition notes: recombinant GST/His6-tagged Mek1, 2 μM ATP, 2 hours at 30° C., PKLight luminescence readout
pIC50: −log10 of the molar value.
measured endpoint: pIC50

INSERT INTO assay_data (molecule, measured_endpoint, result) VALUES
  ('CN(C)CCNc1ccn2ncc(-c3ccc(Cl)cc3)c2n1 [Example 21]', 'pIC50', '< 5.00'),
  ('c1ccc2c(c1)CCN2c1ncnc2[nH]cnc12 [Example 5, 6-(indolin-1-yl)-9H-purine]', 'pIC50', '< 5.00'),
  ('CCCNc1ccc2ncc(-c3ccc(C(=O)O)cc3)n2n1 [Example 22]', 'pIC50', '< 5.00'),
  ('c1ccc2c(c1)[nH]c1ncnc(N3CCOCC3)c12 [Example 1]', 'pIC50', '≥ 5.00'),
  ('O=C(O)c1ccc(-c2cnc3ccc(NC4CCC(O)CC4)nn23)cc1 (stereo not shown) [Example 15]', 'pIC50', '≥ 5.00'),
  ('O=C(O)c1ccc(-c2cnc3ccc(NC4CCOCC4)nn23)cc1 [Example 13]', 'pIC50', '≥ 5.00');

Record O=C(O)c1ccc(-c2cnc3ccc(NCc4ccc(F)cc4)nn23)cc1 [Example 10] . Reported pIC50: ≥ 5.00

Record N#Cc1ccc(-c2cnc3ccc(NC4CCOCC4)nn23)cc1 [Example 12] . Reported pIC50: ≥ 5.00

Record CC(C)(C)n1nc(-c2ccc(F)cc2)c2c(N)ncnc21 [Example 3] . Reported pIC50: ≥ 5.00

Record Cn1cc(-c2cnc3ccc(NCc4cccs4)nn23)cn1 [Example 11] . Reported pIC50: ≥ 5.00

====

- study target: human phospho-Mek1 / non-phosphorylated Mek1 (Homo sapiens, UniProt Q02750)
- Construct: GST (N); His6 (C)
- Sequence (Q02750 whole entry): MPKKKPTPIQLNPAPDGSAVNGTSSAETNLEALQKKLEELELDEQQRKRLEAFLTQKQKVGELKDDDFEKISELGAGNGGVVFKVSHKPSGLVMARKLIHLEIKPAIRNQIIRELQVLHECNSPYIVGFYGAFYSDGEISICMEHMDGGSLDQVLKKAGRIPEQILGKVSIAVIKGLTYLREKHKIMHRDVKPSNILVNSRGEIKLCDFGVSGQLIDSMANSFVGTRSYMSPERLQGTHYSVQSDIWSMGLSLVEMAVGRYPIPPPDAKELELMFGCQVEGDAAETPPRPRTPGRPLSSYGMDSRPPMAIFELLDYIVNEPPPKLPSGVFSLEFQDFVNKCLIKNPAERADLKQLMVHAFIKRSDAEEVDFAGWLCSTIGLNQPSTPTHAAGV
- assay protocol: In vitro Mek1 Kinase Assay
- condition notes: recombinant GST/His6-tagged Mek1, 2 μM ATP, 2 hours at 30° C., PKLight luminescence readout
IC50 reference

Some molecules with known IC50 results, for comparison:
INSERT INTO measurements (compound_smiles, result) VALUES
  ('N#Cc1ccc(-c2cnc3ccc(NCCc4cccnc4)nn23)cc1', '≤ 10 µM'),
  ('CCN(c1ncnc2[nH]cnc12)C1CCCCC1', '≤ 10 µM'),
  ('CC(=O)c1ccc(-c2cnc3ccc(NCc4cccs4)nn23)s1', '> 10 µM'),
  ('O=C(O)c1ccc(-c2cnc3ccc(NCc4cccs4)nn23)cc1', '≤ 10 µM'),
  ('CC1CCN(c2ncnc3[nH]cnc23)CC1', '> 10 µM');

From here, focus on the item given below.
Record COc1cc(OC)c2c(c1)ncc1c(C)nn(-c3ccccc3)c12 . Reported IC50: ≤ 10 µM
